The measurements presented in this section are drawn from patent US10683291B2.

EC50 for assorted compounds
test system: UniProt P21453
Sequence (P21453 whole entry): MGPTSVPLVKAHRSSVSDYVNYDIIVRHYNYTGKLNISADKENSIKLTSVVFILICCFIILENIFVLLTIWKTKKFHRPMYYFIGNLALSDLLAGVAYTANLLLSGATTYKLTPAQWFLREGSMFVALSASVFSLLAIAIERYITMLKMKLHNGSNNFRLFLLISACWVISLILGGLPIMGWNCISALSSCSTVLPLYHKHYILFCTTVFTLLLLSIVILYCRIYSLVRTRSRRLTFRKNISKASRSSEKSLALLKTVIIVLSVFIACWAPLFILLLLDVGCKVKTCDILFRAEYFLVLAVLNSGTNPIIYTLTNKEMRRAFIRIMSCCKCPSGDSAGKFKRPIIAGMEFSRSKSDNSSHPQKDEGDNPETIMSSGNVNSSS
test method notes: GTPγS binding assay (scintillation proximity assay)
run conditions: S1P1 membrane from CHO-K1 Gαqi5 cells expressing full-length human S1P1; GTPγ35S SPA

[
  {
    "compound": "O=C1CC[C@@H](COc2cc(Cl)c(-c3noc(-c4cn5cc(C(F)(F)F)cc(Cl)c5n4)n3)cc2Cl)N1 [Example 1]",
    "EC50": "< 1000 nM"
  },
  {
    "compound": "O=C1CC[C@@H](Oc2cc(Cl)c(-c3noc(-c4cn5cc(C(F)(F)F)cc(Cl)c5n4)n3)cc2Cl)CN1 [Example 5]",
    "EC50": "< 1000 nM"
  }
]

// next entry
Which EC50 value belongs to CN1C[C@H](Oc2cc(Cl)c(-c3noc(-c4cn5cc(C(F)(F)F)cc(Cl)c5n4)n3)cc2Cl)CCC1=O [Example 6] ?
< 1000 nM
